System: RT4 bladder cancer cell line
Test: Cell proliferation assay (methylene blue, 96-well), RT4
Format: cell-based
Conditions: Homo sapiens; RT4 bladder cancer cells, 72 h, average of several independent assays; read-out: IC50 (nM) ± SD, proliferation inhibition
A collection of compounds and their measured IC50
Metric: IC50

- Compound: "CCN(CC)CCCCNc1ncc2cc(-c3cc(OC)cc(OC)c3)c(NC(=O)NC(C)(C)C)nc2n1 [Inhibitor 1, PD173074]"
  Metric: "IC50"
  Observed result: "28 nM"
- Compound: "CN1CCN(c2ccc3nc(-c4c(N)c5c(F)cccc5[nH]c4=O)[nH]c3c2)CC1 [Inhibitor 2]"
  Metric: "IC50"
  Observed result: "134 nM"

###

Tested on: OPM2 multiple myeloma cell line
Assay: Cell proliferation assay (methylene blue, 96-well), OPM2
Assay type: cell-based
Settings: Homo sapiens, OPM-2; OPM2 multiple myeloma cells, 72 h; read-out: IC50 (nM) ± SD, proliferation inhibition
Metric: IC50 (nM)

- Record smiles: "CCN(CC)CCCCNc1ncc2cc(-c3cc(OC)cc(OC)c3)c(NC(=O)NC(C)(C)C)nc2n1"
  System under test: "OPM2 multiple myeloma cell line"
  Metric: "IC50"
  Observed result: 148

###

A collection of molecules and their measured IC50
Test system: RT112 bladder cancer cell line
Test: Cell proliferation assay (methylene blue, 96-well), RT112
Type: cell-based
Conditions: Homo sapiens, RT-112; RT112 bladder cancer cells, 72 h, average of several independent assays; read-out: IC50 (nM) ± SD, proliferation inhibition

- Molecule: "CN1CCN(c2ccc3nc(-c4c(N)c5c(F)cccc5[nH]c4=O)[nH]c3c2)CC1 [Inhibitor 2]"
  IC50, nM: 60
- Molecule: "CCN(CC)CCCCNc1ncc2cc(-c3cc(OC)cc(OC)c3)c(NC(=O)NC(C)(C)C)nc2n1 [Inhibitor 1, PD173074]"
  IC50, nM: 14
